# experimental-system: UniProt:P56658
# Sequence (P56658 whole entry): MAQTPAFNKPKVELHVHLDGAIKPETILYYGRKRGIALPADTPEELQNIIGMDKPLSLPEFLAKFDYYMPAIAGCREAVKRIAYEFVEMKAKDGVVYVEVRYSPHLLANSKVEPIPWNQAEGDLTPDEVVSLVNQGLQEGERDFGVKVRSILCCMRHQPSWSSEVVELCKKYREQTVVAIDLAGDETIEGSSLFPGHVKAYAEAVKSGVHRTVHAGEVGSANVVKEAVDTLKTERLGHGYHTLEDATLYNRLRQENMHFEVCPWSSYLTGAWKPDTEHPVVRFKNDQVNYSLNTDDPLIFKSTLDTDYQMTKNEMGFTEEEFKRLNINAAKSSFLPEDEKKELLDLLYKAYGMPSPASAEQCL
# assay-explanation: Selective identification of adenosine deaminase binders from a synthetic library of EHNA-type analogs (ultrafiltration, electrospray MS)
# Format: binding
# condition-description: single ion monitoring mode, with ADA (FIG. 11B)
measurement-kind: presence of ion in the recovery phase in the presence of ADA

The cases that follow already have their presence of ion in the recovery phase in the presence of ADA on record.
1) CCCCCCCCC(C(C)O)n1cnc2c(N)ncnc21 (centres unmarked) :: present
2) CCCCCC[C@H]([C@H](C)O)n1cnc2c(N)ncnc21 (relative stereo) [EHNA, erythro-9-(2-hydroxy-3-nonyl)adenine] :: present
3) CC(C)CC(C(C)O)n1cnc2c(N)ncnc21 (centres unmarked) :: did not appear
4) CC(O)C(Cc1ccccc1)n1cnc2c(N)ncnc21 (centres unmarked) :: did not appear

Moving on to the next compound.
Q: Determine its reported presence of ion in the recovery phase in the presence of ADA: CCCCCCCCCCC(C(C)O)n1cnc2c(N)ncnc21 (centres unmarked)
A: present
